Target: TgDXR (Toxoplasma gondii, UniProt S8ESX0)
Sequence (S8ESX0 entry or part of it): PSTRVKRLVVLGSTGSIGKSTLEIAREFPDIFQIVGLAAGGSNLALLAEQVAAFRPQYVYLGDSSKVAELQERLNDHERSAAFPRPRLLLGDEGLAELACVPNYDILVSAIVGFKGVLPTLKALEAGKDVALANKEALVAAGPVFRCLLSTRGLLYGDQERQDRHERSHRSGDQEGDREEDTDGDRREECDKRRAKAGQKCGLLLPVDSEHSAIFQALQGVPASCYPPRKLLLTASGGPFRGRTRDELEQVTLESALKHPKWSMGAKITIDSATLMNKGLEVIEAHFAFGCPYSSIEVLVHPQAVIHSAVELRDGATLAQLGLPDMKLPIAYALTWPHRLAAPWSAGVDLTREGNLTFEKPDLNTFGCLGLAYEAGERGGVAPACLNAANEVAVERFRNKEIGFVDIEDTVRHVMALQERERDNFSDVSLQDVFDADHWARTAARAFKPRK
Test: T. gondii DXR enzyme inhibition assay (NADPH oxidation, absorption at 340 nm)
Type: biochemical
Conditions: Ki = IC50/(1 + [S]/Km), [S] = 100 µM DXP, Km = 30.58 µM
experimental-endpoint: pKi
Quick note: pKi means taking -log10 of the concentration in moles per liter.

Example cases with answers are listed next.
> print(dat)
                                   molecule  test.value
1  CN(O)C(=O)CSC(c1cc(F)cc(F)c1)P(=O)(O)O (stereo not shown)        6.13
2  CN(O)C(=O)CSC(c1ccc(Cl)c(Cl)c1)P(=O)(O)O (stereo not shown)        6.72
3  Cc1ccc(C(OCC(=O)N(C)O)P(=O)(O)O)cc1 (stereo not shown)        5.60
4  CN(O)C(=O)CSC(c1ccc(F)c(F)c1)P(=O)(O)O (stereo not shown)        6.72

Determine from records and report pKi for CN(O)C(=O)COC(c1ccc(Cl)c(Cl)c1)P(=O)(O)O (stereo not shown)
6.13

Identify measured pKi associated with CN(O)C(=O)CSC(c1ccccc1)P(=O)(O)O (stereo not shown)
6.43

Using known records, supply pKi for COc1cc(OC)cc(C(SCC(=O)N(C)O)P(=O)(O)O)c1 (stereo not shown)
5.93

Every entry's value here was drawn from paper PMC11346426.
